Target: COX-2 (Homo sapiens, UniProt P35354)
Sequence (P35354 18-604): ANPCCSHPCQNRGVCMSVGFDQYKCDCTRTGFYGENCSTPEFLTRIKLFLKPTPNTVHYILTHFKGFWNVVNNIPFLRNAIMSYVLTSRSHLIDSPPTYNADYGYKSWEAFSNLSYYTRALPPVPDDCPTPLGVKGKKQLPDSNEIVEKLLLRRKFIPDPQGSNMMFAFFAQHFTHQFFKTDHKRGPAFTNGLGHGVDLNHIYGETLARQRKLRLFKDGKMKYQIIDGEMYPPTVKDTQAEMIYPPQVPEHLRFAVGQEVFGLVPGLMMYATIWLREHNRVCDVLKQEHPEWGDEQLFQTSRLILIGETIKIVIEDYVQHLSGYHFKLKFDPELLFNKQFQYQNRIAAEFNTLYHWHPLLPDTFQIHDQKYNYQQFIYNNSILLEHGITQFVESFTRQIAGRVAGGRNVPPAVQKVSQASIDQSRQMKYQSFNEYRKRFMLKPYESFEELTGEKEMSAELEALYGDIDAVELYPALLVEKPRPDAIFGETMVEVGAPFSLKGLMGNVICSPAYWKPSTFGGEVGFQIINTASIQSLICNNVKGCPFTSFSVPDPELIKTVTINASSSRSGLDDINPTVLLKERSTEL
QUANTITY_KIND: IC50 (µM)
Write the value in µM as a bare number.

input: Using known records, supply IC50 for CCCC(=O)[O-].[Na+] [Sodium butyrate, reference compound]
output: 2670

====

A collection of molecules and their measured HDAC 9 activity, % of water-treated controls
Molecular target: UniProt Q9UKV0
Sequence (Q9UKV0 whole entry): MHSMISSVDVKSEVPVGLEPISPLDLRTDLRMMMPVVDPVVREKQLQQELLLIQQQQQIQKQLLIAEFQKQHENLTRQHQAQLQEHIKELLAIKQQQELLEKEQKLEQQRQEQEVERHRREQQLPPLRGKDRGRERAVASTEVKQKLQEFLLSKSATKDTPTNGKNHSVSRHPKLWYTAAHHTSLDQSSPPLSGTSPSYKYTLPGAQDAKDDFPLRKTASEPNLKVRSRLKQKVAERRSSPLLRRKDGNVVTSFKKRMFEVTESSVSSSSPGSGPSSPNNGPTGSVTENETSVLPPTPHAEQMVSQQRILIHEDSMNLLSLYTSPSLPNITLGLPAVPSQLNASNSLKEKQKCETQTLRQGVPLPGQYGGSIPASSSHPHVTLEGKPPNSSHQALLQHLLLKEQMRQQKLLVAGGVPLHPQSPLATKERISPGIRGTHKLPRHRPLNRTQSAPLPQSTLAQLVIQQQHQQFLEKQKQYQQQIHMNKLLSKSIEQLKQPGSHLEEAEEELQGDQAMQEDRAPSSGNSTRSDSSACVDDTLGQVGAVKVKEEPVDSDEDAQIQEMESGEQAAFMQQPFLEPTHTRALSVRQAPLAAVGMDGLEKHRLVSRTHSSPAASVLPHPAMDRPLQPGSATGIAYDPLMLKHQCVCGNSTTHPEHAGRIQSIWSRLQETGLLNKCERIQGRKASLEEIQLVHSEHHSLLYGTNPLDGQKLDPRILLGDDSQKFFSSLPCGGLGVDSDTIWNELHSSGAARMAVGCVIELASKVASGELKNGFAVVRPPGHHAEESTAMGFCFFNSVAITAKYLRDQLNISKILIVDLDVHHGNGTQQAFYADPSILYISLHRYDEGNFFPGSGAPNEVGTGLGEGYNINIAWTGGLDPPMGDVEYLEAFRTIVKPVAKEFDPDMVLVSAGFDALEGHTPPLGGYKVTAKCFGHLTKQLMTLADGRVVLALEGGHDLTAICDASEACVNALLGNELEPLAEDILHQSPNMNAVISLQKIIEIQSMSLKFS
Details: 100 ug/ml
Returns: string containing the numeric result and its unit.

[[record]]
molecule = "CCCC(=O)NCCCC[C@H](NC(=O)CCC)C(=O)[O-].CCCC(=O)NCCCC[C@H](NC(=O)CCC)C(=O)[O-].[Zn+2] [Zn di-(di-n-butyryl lysinate), Zinc di-(di-n-butyryl lysinate)]"
result = "19%"

[[record]]
molecule = "CCCC(=O)[O-].[Na+] [Sodium butyrate, reference compound]"
result = "53%"

[[record]]
molecule = "CCCC(=O)N[C@@H](CC(C)C)C(=O)[O-].CCCC(=O)N[C@@H](CC(C)C)C(=O)[O-].[Zn+2] [Zn di-(n-butyryl leucinate), Zinc di-(n-butyryl leucinate)]"
result = "30%"


Below: the item to evaluate.
input: Input CCCC(=O)NCCCCC(NC(=O)CCC)C(=O)[O-].CCCC(=O)NCCCCC(NC(=O)CCC)C(=O)[O-].[Ca+2] (stereo not shown) [Ca di-(di-n-butyryl lysinate), calcium di-(di-n-butyryl lysinate)] , output reported HDAC 9 activity, % of water-treated controls.
output: 289%
